system: Escherichia coli TOP10; assay: shrunken log2 fold change of peptide-encoding DNA abundance (4.5 h post-induction vs induction); higher = less antimicrobial activity (less host growth inhibition); settings: time post-induction: 4.5 h; library: site-saturation at positions 5, 18, 19, 20
# maps each entry to its shrunken log2 fold change

Here are 5 sequences together with their reported answers.
Measured shrunken log2 fold change (Escherichia coli TOP10), entry "RRIRPRPPRLPRPRPRPMRIPRP" : 0.189

Measured shrunken log2 fold change (Escherichia coli TOP10), entry "RRIRYRPPRLPRPRPRPVLSPRP" : -0.311

Measured shrunken log2 fold change (Escherichia coli TOP10), entry "RRIRARPPRLPRPRPRPNVWPRP" : 0.537

Measured shrunken log2 fold change (Escherichia coli TOP10), entry "RRIRKRPPRLPRPRPRPSIWPRP" : -0.0618

Measured shrunken log2 fold change (Escherichia coli TOP10), entry "RRIRGRPPRLPRPRPRPMRYPRP" : 0.347

Now for a further sequence.
Measured shrunken log2 fold change (Escherichia coli TOP10), entry "RRIRPRPPRLPRPRPRPWNHPRP" : -0.485

* * *

tested on: Escherichia coli TOP10; assay: shrunken log2 fold change of peptide-encoding DNA abundance (4.5 h post-induction vs induction); higher = less antimicrobial activity (less host growth inhibition); settings: time post-induction: 4.5 h; library: site-saturation at positions 5, 18, 19, 20
parameter measured: shrunken log2 fold change
// response body must contain only the number

Value of shrunken log2 fold change reported for the sequence "RRIRTRPPRLPRPRPRPCCWPRP" is 0.0822

Value of shrunken log2 fold change reported for the sequence "RRIRARPPRLPRPRPRPGYYPRP" is -0.254

Value of shrunken log2 fold change reported for the sequence "RRIRLRPPRLPRPRPRPHQMPRP" is -0.199

Value of shrunken log2 fold change reported for the sequence "RRIRLRPPRLPRPRPRPYYRPRP" is -0.043

Value of shrunken log2 fold change reported for the sequence "RRIRDRPPRLPRPRPRPDNWPRP" is -0.232

Further cases:
Value of shrunken log2 fold change reported for the sequence "RRIRMRPPRLPRPRPRPRNMPRP" is 0.281

Value of shrunken log2 fold change reported for the sequence "RRIRWRPPRLPRPRPRPPVVPRP" is 0.13

* * *

tested on: Escherichia coli TOP10; assay: shrunken log2 fold change of peptide-encoding DNA abundance (4.5 h post-induction vs induction); higher = less antimicrobial activity (less host growth inhibition); conditions: time post-induction: 4.5 h; library: site-saturation at positions 5, 18, 19, 20
# maps each entry to its shrunken log2 fold change
// response body must contain only the number

Here are 2 sequences together with their reported answers.
Value of shrunken log2 fold change reported for the sequence "RRIRTRPPRLPRPRPRPHDDPRP" is -0.0991

Value of shrunken log2 fold change reported for the sequence "RRIRYRPPRLPRPRPRPKLGPRP" is -0.0974

Now for a further sequence.
Value of shrunken log2 fold change reported for the sequence "RRIRFRPPRLPRPRPRPQDQPRP" is -0.0978

* * *

test system: Escherichia coli TOP10; experiment: shrunken log2 fold change of peptide-encoding DNA abundance (4.5 h post-induction vs induction); higher = less antimicrobial activity (less host growth inhibition); details: time post-induction: 4.5 h; library: site-saturation at positions 5, 18, 19, 20
parameter measured: shrunken log2 fold change

Value of shrunken log2 fold change reported for the sequence "RRIRMRPPRLPRPRPRPGDDPRP" is 1.96

Value of shrunken log2 fold change reported for the sequence "RRIRQRPPRLPRPRPRPSHMPRP" is 0.109

Further cases:
Value of shrunken log2 fold change reported for the sequence "RRIRTRPPRLPRPRPRPPKQPRP" is -0.00507

Value of shrunken log2 fold change reported for the sequence "RRIRRRPPRLPRPRPRPHEIPRP" is -0.0745

Value of shrunken log2 fold change reported for the sequence "RRIRVRPPRLPRPRPRPWDLPRP" is 0.146

Value of shrunken log2 fold change reported for the sequence "RRIRVRPPRLPRPRPRPRKVPRP" is -0.0445

Value of shrunken log2 fold change reported for the sequence "RRIRLRPPRLPRPRPRPLAPPRP" is 0.274

Value of shrunken log2 fold change reported for the sequence "RRIRERPPRLPRPRPRPGPMPRP" is 0.224

Value of shrunken log2 fold change reported for the sequence "RRIRPRPPRLPRPRPRPQWMPRP" is 0.00643

Value of shrunken log2 fold change reported for the sequence "RRIRIRPPRLPRPRPRPPGMPRP" is 0.238

Value of shrunken log2 fold change reported for the sequence "RRIRTRPPRLPRPRPRPQRTPRP" is -0.296

Value of shrunken log2 fold change reported for the sequence "RRIRYRPPRLPRPRPRPRRSPRP" is -0.0446

Value of shrunken log2 fold change reported for the sequence "RRIRQRPPRLPRPRPRPLDLPRP" is -0.276

Value of shrunken log2 fold change reported for the sequence "RRIRIRPPRLPRPRPRPFADPRP" is -0.26

Value of shrunken log2 fold change reported for the sequence "RRIRQRPPRLPRPRPRPDYEPRP" is 0.0301

Value of shrunken log2 fold change reported for the sequence "RRIRTRPPRLPRPRPRPNNSPRP" is -0.61

Value of shrunken log2 fold change reported for the sequence "RRIRERPPRLPRPRPRPNGQPRP" is 0.0342

* * *

system: Escherichia coli TOP10; assay: shrunken log2 fold change of peptide-encoding DNA abundance (4.5 h post-induction vs induction); higher = less antimicrobial activity (less host growth inhibition); conditions: time post-induction: 4.5 h; library: site-saturation at positions 5, 18, 19, 20
parameter measured: shrunken log2 fold change
// response body must contain only the number

Here are 5 sequences together with their reported answers.
Value of shrunken log2 fold change reported for the sequence "RRIRLRPPRLPRPRPRPCFCPRP" is -0.279

Value of shrunken log2 fold change reported for the sequence "RRIRFRPPRLPRPRPRPMQYPRP" is -0.683

Value of shrunken log2 fold change reported for the sequence "RRIRERPPRLPRPRPRPWIDPRP" is -0.0474

Value of shrunken log2 fold change reported for the sequence "RRIRNRPPRLPRPRPRPCNPPRP" is -0.378

Value of shrunken log2 fold change reported for the sequence "RRIRGRPPRLPRPRPRPANRPRP" is 0.0838

Further cases:
Value of shrunken log2 fold change reported for the sequence "RRIRFRPPRLPRPRPRPQREPRP" is 0.296

Value of shrunken log2 fold change reported for the sequence "RRIRQRPPRLPRPRPRPDIQPRP" is 0.00127

Value of shrunken log2 fold change reported for the sequence "RRIRMRPPRLPRPRPRPCVQPRP" is -0.0115

Value of shrunken log2 fold change reported for the sequence "RRIRHRPPRLPRPRPRPLSVPRP" is -0.136

* * *

test system: Escherichia coli TOP10; experiment: shrunken log2 fold change of peptide-encoding DNA abundance (4.5 h post-induction vs induction); higher = less antimicrobial activity (less host growth inhibition); details: time post-induction: 4.5 h; library: site-saturation at positions 5, 18, 19, 20
# maps each entry to its shrunken log2 fold change
// response body must contain only the number

Value of shrunken log2 fold change reported for the sequence "RRIRRRPPRLPRPRPRPMNLPRP" is 0.0545

Value of shrunken log2 fold change reported for the sequence "RRIRWRPPRLPRPRPRPVTWPRP" is -0.017

Value of shrunken log2 fold change reported for the sequence "RRIRSRPPRLPRPRPRPQWPPRP" is 0.121

Further cases:
Value of shrunken log2 fold change reported for the sequence "RRIRFRPPRLPRPRPRPYVCPRP" is -0.301

Value of shrunken log2 fold change reported for the sequence "RRIRGRPPRLPRPRPRPTVQPRP" is 0.796

Value of shrunken log2 fold change reported for the sequence "RRIRCRPPRLPRPRPRPWQVPRP" is 0.00859

Value of shrunken log2 fold change reported for the sequence "RRIRQRPPRLPRPRPRPHVNPRP" is 0.0398

* * *

system: Escherichia coli TOP10; assay: shrunken log2 fold change of peptide-encoding DNA abundance (4.5 h post-induction vs induction); higher = less antimicrobial activity (less host growth inhibition); conditions: time post-induction: 4.5 h; library: site-saturation at positions 5, 18, 19, 20;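 note: peptides expressed intracellularly from a pBAD plasmid library in pooled LB shake-flask culture, induced with 0.3% L-arabinose, DNA abundance read by NGS, three biological replicates, DESeq2 with apeglm shrinkage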
parameter measured: shrunken log2 fold change
// response body must contain only the number

Here are 3 sequences together with their reported answers.
Value of shrunken log2 fold change reported for the sequence "RRIRERPPRLPRPRPRPEVYPRP" is -0.0514

Value of shrunken log2 fold change reported for the sequence "RRIRYRPPRLPRPRPRPDFEPRP" is -0.0141

Value of shrunken log2 fold change reported for the sequence "RRIRYRPPRLPRPRPRPPCDPRP" is -0.196

Further cases:
Value of shrunken log2 fold change reported for the sequence "RRIRWRPPRLPRPRPRPPSDPRP" is 0.184

Value of shrunken log2 fold change reported for the sequence "RRIRMRPPRLPRPRPRPQPQPRP" is 0.717

Value of shrunken log2 fold change reported for the sequence "RRIRMRPPRLPRPRPRPDWYPRP" is -0.135

Value of shrunken log2 fold change reported for the sequence "RRIRKRPPRLPRPRPRPEQHPRP" is 0.586

Value of shrunken log2 fold change reported for the sequence "RRIRPRPPRLPRPRPRPNKSPRP" is 0.408
